Items are presented alongside their recorded bioavailability.
Test: Mouse pharmacokinetics (plasma, whole blood, brain)
Format: in vivo, male CD-1 mice
Details: male, CD-1, mouse, po; over the three sampling sites (plasma, whole blood, brain); read-out: oral bioavailability
Experimental: In order to determine the suitability of the more permeable hits for in vivo efficacy studies, we first measured their aqueous solubilities, and their tendencies to metabolise, following a 1 h incubation with CD-1 mouse liver S9 subcellular fractions.[14] […]

[
  {
    "COMPOUND": "O=[N+]([O-])c1cn2c(n1)[S+]([O-])CC(OCc1ccc(OCc3ccccc3)cc1)C2 (centres unmarked) [Compound 9]",
    "bioavailability": "< 1.5%"
  }
]

# context switch: different compound, same bioavailability
Input: Look up bioavailability: O=[N+]([O-])c1cn2c(n1)[S+]([O-])CC(OCc1ccc(OC(F)(F)F)cc1)C2 (centres unmarked) [Compound 12]
Output: 52 to 55%

###

assay: Mouse pharmacokinetics (plasma, whole blood, brain); type: in vivo, male CD-1 mice; details: male, CD-1, mouse; whole blood; oral, corrected doses 62, 50, 78, 49 mg/kg for 9, 12, 17, 19; read-out: t1/2 (converted)
ATTRIBUTE MEASURED: half-life (min)

[
  {
    "COMPOUND": "O=[N+]([O-])c1cn2c(n1)[S+]([O-])CC(OCc1ccc(OC(F)(F)F)cc1)C2 (stereo not shown)",
    "EXPERIMENTAL VALUE": 348
  },
  {
    "COMPOUND": "O=[N+]([O-])c1cn2c(n1)OC[C@@H](NCc1ccc(OC(F)(F)F)cc1)C2",
    "EXPERIMENTAL VALUE": 90
  }
]

[a] O=[N+]([O-])c1cn2c(n1)[S+]([O-])CC(OCc1ccc(OCc3ccccc3)cc1)C2 (stereo not shown)
[b] O=[N+]([O-])c1cn2c(n1)S(=O)(=O)CC(OCc1ccc(OC(F)(F)F)cc1)C2 (stereo not shown)
Input: // max by half-life over [ a , b ] I would appreciate it if you answered with the label of your choice.
Output: a

###

assay: Mouse pharmacokinetics (plasma, whole blood, brain); assay type: in vivo, male CD-1 mice; conditions: male, CD-1, mouse, po; plasma; from dose normalised AUClast values; read-out: F (oral bioavailability)
ATTRIBUTE MEASURED: bioavailability (%)

[
  {
    "COMPOUND": "O=[N+]([O-])c1cn2c(n1)[S+]([O-])CC(OCc1ccc(OC(F)(F)F)cc1)C2 (stereo not drawn)",
    "bioavailability (%)": 55
  },
  {
    "COMPOUND": "O=[N+]([O-])c1cn2c(n1)S(=O)(=O)CC(OCc1ccc(OC(F)(F)F)cc1)C2 (stereo not drawn)",
    "bioavailability (%)": 42
  },
  {
    "COMPOUND": "O=[N+]([O-])c1cn2c(n1)OC[C@@H](NCc1ccc(OC(F)(F)F)cc1)C2",
    "bioavailability (%)": 100
  }
]

###

assay: Mouse pharmacokinetics (plasma, whole blood, brain); assay type: in vivo, male CD-1 mice; conditions: male, CD-1, mouse; plasma; oral, corrected doses 62, 50, 78, 49 mg/kg for 9, 12, 17, 19
ATTRIBUTE MEASURED: Tmax (h)

[
  {
    "COMPOUND": "O=[N+]([O-])c1cn2c(n1)S(=O)(=O)CC(OCc1ccc(OC(F)(F)F)cc1)C2 (stereo not shown) [Compound 19]",
    "ATTRIBUTE MEASURED": "Tmax",
    "EXPERIMENTAL VALUE": 2
  },
  {
    "COMPOUND": "O=[N+]([O-])c1cn2c(n1)OC[C@@H](NCc1ccc(OC(F)(F)F)cc1)C2 [Compound 17]",
    "ATTRIBUTE MEASURED": "Tmax",
    "EXPERIMENTAL VALUE": 1
  }
]

[P] O=[N+]([O-])c1cn2c(n1)[S+]([O-])CC(OCc1ccc(OC(F)(F)F)cc1)C2 (stereo not shown) [Compound 12]
[Q] O=[N+]([O-])c1cn2c(n1)[S+]([O-])CC(OCc1ccc(OCc3ccccc3)cc1)C2 (stereo not shown) [Compound 9]
Input: Decide: P or Q , by lowest recorded Tmax. I would appreciate it if you answered with the label of your choice.
Output: Q
(Q: 2 h, P: 4 h)

###

assay: Mouse pharmacokinetics (plasma, whole blood, brain); format: in vivo, male CD-1 mice; conditions: male, CD-1, mouse; plasma; intravenous, corrected doses 0.5, 1.1, 2.9, 2.0 mg/kg for 9, 12, 17, 19; read-out: t1/2 (converted)
ATTRIBUTE MEASURED: half-life (min)

[
  {
    "COMPOUND": "O=[N+]([O-])c1cn2c(n1)S(=O)(=O)CC(OCc1ccc(OC(F)(F)F)cc1)C2 (stereo not shown)",
    "half-life / min": 150
  },
  {
    "COMPOUND": "O=[N+]([O-])c1cn2c(n1)OC[C@@H](NCc1ccc(OC(F)(F)F)cc1)C2",
    "half-life / min": 28.8
  }
]

[I] O=[N+]([O-])c1cn2c(n1)[S+]([O-])CC(OCc1ccc(OC(F)(F)F)cc1)C2 (stereo not shown)
[II] O=[N+]([O-])c1cn2c(n1)[S+]([O-])CC(OCc1ccc(OCc3ccccc3)cc1)C2 (stereo not shown)
Input: // max by half-life over [ I , II ] I would appreciate it if you answered with the label of your choice.
Output: I

###

Test: Mouse pharmacokinetics (plasma, whole blood, brain)
Assay type: in vivo, male CD-1 mice
Conditions: male, CD-1, mouse; plasma; intravenous, corrected doses 0.5, 1.1, 2.9, 2.0 mg/kg for 9, 12, 17, 19; read-out: Vdss
Procedure: In order to determine the suitability of the more permeable hits for in vivo efficacy studies, we first measured their aqueous solubilities, and their tendencies to metabolise, following a 1 h incubation with CD-1 mouse liver S9 subcellular fractions.[14] […]
ATTRIBUTE MEASURED: Vd (L/kg)

[
  {
    "COMPOUND": "O=[N+]([O-])c1cn2c(n1)OC[C@@H](NCc1ccc(OC(F)(F)F)cc1)C2 [Compound 17]",
    "EXPERIMENTAL VALUE": 4.7
  }
]

[P] O=[N+]([O-])c1cn2c(n1)[S+]([O-])CC(OCc1ccc(OCc3ccccc3)cc1)C2 (stereo not shown) [Compound 9]
[Q] O=[N+]([O-])c1cn2c(n1)S(=O)(=O)CC(OCc1ccc(OC(F)(F)F)cc1)C2 (stereo not shown) [Compound 19]
[R] O=[N+]([O-])c1cn2c(n1)[S+]([O-])CC(OCc1ccc(OC(F)(F)F)cc1)C2 (stereo not shown) [Compound 12]
Input: Rank the items in ascending order with respect to Vd. Form entry: labels listed in requested order.
Output: P, R, Q
(P: 0.59 L/kg, R: 1.6 L/kg, Q: 3.6 L/kg)

###

assay: Mouse pharmacokinetics (plasma, whole blood, brain); format: in vivo, male CD-1 mice; conditions: male, CD-1, mouse; plasma; oral, corrected doses 62, 50, 78, 49 mg/kg for 9, 12, 17, 19; read-out: t1/2 (converted)
ATTRIBUTE MEASURED: half-life (h)

[
  {
    "MOLECULE": "O=[N+]([O-])c1cn2c(n1)OC[C@@H](NCc1ccc(OC(F)(F)F)cc1)C2 [Compound 17]",
    "RESULT UNIT": "h",
    "half-life": 1.2
  }
]

[A] O=[N+]([O-])c1cn2c(n1)S(=O)(=O)CC(OCc1ccc(OC(F)(F)F)cc1)C2 (stereo not shown) [Compound 19]
[B] O=[N+]([O-])c1cn2c(n1)[S+]([O-])CC(OCc1ccc(OC(F)(F)F)cc1)C2 (stereo not shown) [Compound 12]
Input: // max by half-life over [ A , B ] I would appreciate it if you answered with the label of your choice.
Output: B

###

system: human lung fibroblasts (MRC-5 cells); experiment: Cytotoxicity toward MRC-5 cells (University of Antwerp); format: cell-based; settings: cytotoxicity toward human lung fibroblasts
Items are presented alongside their recorded pIC50.
pIC50 here: minus log base 10 of the concentration, concentration in moles per litre.

Here's what some known entries look like.
[
  {
    "COMPOUND": "O=[N+]([O-])c1cn2c(n1)[S+]([O-])CC(Oc1ccc(C(F)(F)F)cn1)C2 (stereo not shown) [Compound 37]",
    "pIC50": 4.52
  },
  {
    "COMPOUND": "O=[N+]([O-])c1cn2c(n1)[S+]([O-])CC(OCc1ccc(-c3ccc(OC(F)(F)F)cc3)cn1)C2 (stereo not shown) [Compound 35]",
    "pIC50": 4.80
  },
  {
    "COMPOUND": "O=[N+]([O-])c1cn2c(n1)[S+]([O-])CC(Oc1ccc(OC(F)(F)F)cc1)C2 (stereo not shown) [Compound 33]",
    "pIC50": 4.64
  }
]

Input: Look up pIC50: O=[N+]([O-])c1cn2c(n1)[S+]([O-])CC(OCc1ccc(-c3ccc(OC(F)(F)F)cc3)cn1)C2 (stereo not shown) [Compound 39]
Output: 4.27
